Tested on: HCCLM3
Experiment description: Cell proliferation assay (Alamar Blue)
Assay type: cell-based
Applied conditions: Homo sapiens, 144 h; HCCLM3 tumor cell line; 6 days culture
Description: 1. Instruments and Materials • Thermo 311 CO2 incubator; Haier biosafety cabinet; Molecular Devices microplate reader; Xiangyi brand L530 desktop low speed centrifuge; Olympus IX51 inverted fluorescence microscope, DMEM, RPMI 1640, MEM, DMEM/F12 1:1 medium, Fetal bovine serum, 0.25% trypsin solution, phosphate buffer (Thermo Fisher Shanghai Co., Ltd.); sigma dimethyl sulfoxide (DMSO), resazurin; 54 commercial tumor cell lines (including 26 liver cancer cell lines). […]
Experimental endpoint: IC50 (µM)
Number in µM, nothing else.

For orientation, consider the following solved cases.
>  <Molecule>
Cc1ccc(F)c(NC(=O)Nc2ccc(-c3cccc4[nH]nc(NC(=O)C[C@H](N)C(=O)O)c34)cc2)c1 [Compound 10]

>  <Target or system>
HCCLM3

>  <Experimental endpoint>
IC50

>  <Measured value>
7.76

$$$$
>  <Molecule>
Cc1ccc(F)c(NC(=O)Nc2ccc(-c3cccc4[nH]nc(NC(=O)C[C@H](N)C(=O)N[C@@H](CCC(=O)O)C(=O)O)c34)cc2)c1 [Compound 1]

>  <Target or system>
HCCLM3

>  <Experimental endpoint>
IC50

>  <Measured value>
8.24

$$$$

Look up IC50 for this molecule: Cc1ccc(F)c(NC(=O)Nc2ccc(-c3cccc4[nH]nc(NC(=O)C[C@H](N)C(=O)N[C@@H](CCC(=O)N[C@@H](CCC(=O)N[C@@H](CCC(=O)N[C@@H](CCC(=O)O)C(=O)O)C(=O)O)C(=O)O)C(=O)O)c34)cc2)c1 [Compound 2]
12

###

Test system: NCI-H716
Experiment description: Cell proliferation assay (Alamar Blue)
Assay type: cell-based
Applied conditions: NCI-H716 tumor cell line; 6 days culture
Y if IC50 is below 70 µM. N if not; exact matches included in N.

Solved cases (4 shown):
>  <Smiles structure>
Cc1ccc(F)c(NC(=O)Nc2ccc(-c3cccc4[nH]nc(NC(=O)CCCCCNC(=O)C[C@H](N)C(=O)N[C@@H](CCC(=O)O)C(=O)O)c34)cc2)c1

>  <Target or system>
NCI-H716

>  <Qualitative label>
N

$$$$
>  <Smiles structure>
Cc1ccc(F)c(NC(=O)Nc2ccc(-c3cccc4[nH]nc(NC(=O)CCCCCCCCCCCNC(=O)C[C@H](N)C(=O)O)c34)cc2)c1

>  <Target or system>
NCI-H716

>  <Qualitative label>
Y

$$$$
>  <Smiles structure>
Cc1ccc(F)c(NC(=O)Nc2ccc(-c3cccc4[nH]nc(NC(=O)CCCCCNC(=O)C[C@H](N)C(=O)O)c34)cc2)c1

>  <Target or system>
NCI-H716

>  <Qualitative label>
Y

$$$$
>  <Smiles structure>
Cc1ccc(F)c(NC(=O)Nc2ccc(-c3cccc4[nH]nc(NC(=O)CCCCCCCCCCCNC(=O)C[C@H](N)C(=O)N[C@@H](CCC(=O)N[C@@H](CCC(=O)N[C@@H](CCC(=O)N[C@@H](CCC(=O)N[C@@H](CCC(=O)N[C@@H](CCC(=O)N[C@@H](CCC(=O)N[C@@H](CCC(=O)N[C@@H](CCC(=O)O)C(=O)O)C(=O)O)C(=O)O)C(=O)O)C(=O)O)C(=O)O)C(=O)O)C(=O)O)C(=O)O)c34)cc2)c1

>  <Target or system>
NCI-H716

>  <Qualitative label>
N

$$$$

Now, please, on to the next molecule.
Determine if Cc1ccc(F)c(NC(=O)Nc2ccc(-c3cccc4[nH]nc(NC(=O)CCCCCCCCCCCNC(=O)C[C@H](N)C(=O)N[C@@H](CCC(=O)O)C(=O)O)c34)cc2)c1 shows IC50 strictly lower than 70 µM.
Y

###

IC50: recorded values
System: SNU739
Experiment description: Cell proliferation assay (Alamar Blue)
Format: cell-based
Applied conditions: SNU739 liver cancer cell line; 6 days culture

Study these solved cases before continuing.
>  <Smiles structure>
Cc1ccc(F)c(NC(=O)Nc2ccc(-c3cccc4[nH]nc(NC(=O)CCCCCNC(=O)C[C@H](N)C(=O)N[C@@H](CCC(=O)O)C(=O)O)c34)cc2)c1

>  <IC50>
> 100 µM

$$$$
>  <Smiles structure>
Cc1ccc(F)c(NC(=O)Nc2ccc(-c3cccc4[nH]nc(NC(=O)CCCCCNC(=O)C[C@H](N)C(=O)O)c34)cc2)c1

>  <IC50>
> 100 µM

$$$$

Here's the next entry for you.
Lab note: need IC50 with SNU739 for entry Cc1ccc(F)c(NC(=O)Nc2ccc(-c3cccc4[nH]nc(NC(=O)CCCCCCCCCCCNC(=O)C[C@H](N)C(=O)O)c34)cc2)c1 , please look it up.
> 100 µM

###

Test system: NCI-H1703
Experiment description: Cell proliferation assay (Alamar Blue)
Assay type: cell-based
Applied conditions: NCI-H1703 (lung cancer cells); 6 days culture
Recorded pIC50 by entry
The meaning of pIC50 here: minus log10 of the concentration in molar units.

>  <Smiles structure>
Cc1ccc(F)c(NC(=O)Nc2ccc(-c3cccc4[nH]nc(NC(=O)CCCCCNC(=O)C[C@H](N)C(=O)O)c34)cc2)c1

>  <pIC50>
6.08

$$$$
>  <Smiles structure>
Cc1ccc(F)c(NC(=O)Nc2ccc(-c3cccc4[nH]nc(NC(=O)CCCCCCCCCCCNC(=O)C[C@H](N)C(=O)N[C@@H](CCC(=O)O)C(=O)O)c34)cc2)c1

>  <pIC50>
6.96

$$$$
>  <Smiles structure>
Cc1ccc(F)c(NC(=O)Nc2ccc(-c3cccc4[nH]nc(NC(=O)CCCCCNC(=O)C[C@H](N)C(=O)N[C@@H](CCC(=O)O)C(=O)O)c34)cc2)c1

>  <pIC50>
5.91

$$$$
>  <Smiles structure>
Cc1ccc(F)c(NC(=O)Nc2ccc(-c3cccc4[nH]nc(NC(=O)CCCCCCCCCCCNC(=O)C[C@H](N)C(=O)O)c34)cc2)c1

>  <pIC50>
6.60

$$$$

Value lookup for pIC50; key = Cc1ccc(F)c(NC(=O)Nc2ccc(-c3cccc4[nH]nc(NC(=O)CCCCCCCCCCCNC(=O)C[C@H](N)C(=O)N[C@@H](CCC(=O)N[C@@H](CCC(=O)N[C@@H](CCC(=O)N[C@@H](CCC(=O)N[C@@H](CCC(=O)N[C@@H](CCC(=O)N[C@@H](CCC(=O)N[C@@H](CCC(=O)N[C@@H](CCC(=O)O)C(=O)O)C(=O)O)C(=O)O)C(=O)O)C(=O)O)C(=O)O)C(=O)O)C(=O)O)C(=O)O)c34)cc2)c1
6.46

###

The entries below come with measured IC50 values attached.
Test system: HLE
Experiment description: Cell proliferation assay (Alamar Blue)
Format: cell-based
Applied conditions: HLE liver cancer cell line; 6 days culture
Protocol: 1. Instruments and Materials • Thermo 311 CO2 incubator; Haier biosafety cabinet; Molecular Devices microplate reader; Xiangyi brand L530 desktop low speed centrifuge; Olympus IX51 inverted fluorescence microscope, DMEM, RPMI 1640, MEM, DMEM/F12 1:1 medium, Fetal bovine serum, 0.25% trypsin solution, phosphate buffer (Thermo Fisher Shanghai Co., Ltd.); sigma dimethyl sulfoxide (DMSO), resazurin; 54 commercial tumor cell lines (including 26 liver cancer cell lines). […]

>  <Smiles structure>
Cc1ccc(F)c(NC(=O)Nc2ccc(-c3cccc4[nH]nc(NC(=O)CCCCCCCCCCCNC(=O)C[C@H](N)C(=O)N[C@@H](CCC(=O)O)C(=O)O)c34)cc2)c1

>  <IC50>
88.3 µM

$$$$

Request the reported IC50 associated with Cc1ccc(F)c(NC(=O)Nc2ccc(-c3cccc4[nH]nc(NC(=O)CCCCCNC(=O)C[C@H](N)C(=O)O)c34)cc2)c1
> 100 µM

Then Cc1ccc(F)c(NC(=O)Nc2ccc(-c3cccc4[nH]nc(NC(=O)CCCCCCCCCCCNC(=O)C[C@H](N)C(=O)O)c34)cc2)c1 ?
> 100 µM

Again, but for Cc1ccc(F)c(NC(=O)Nc2ccc(-c3cccc4[nH]nc(NC(=O)CCCCCNC(=O)C[C@H](N)C(=O)N[C@@H](CCC(=O)O)C(=O)O)c34)cc2)c1
> 100 µM

Cc1ccc(F)c(NC(=O)Nc2ccc(-c3cccc4[nH]nc(NC(=O)CCCCCCCCCCCNC(=O)C[C@H](N)C(=O)N[C@@H](CCC(=O)N[C@@H](CCC(=O)N[C@@H](CCC(=O)N[C@@H](CCC(=O)N[C@@H](CCC(=O)N[C@@H](CCC(=O)N[C@@H](CCC(=O)N[C@@H](CCC(=O)N[C@@H](CCC(=O)O)C(=O)O)C(=O)O)C(=O)O)C(=O)O)C(=O)O)C(=O)O)C(=O)O)C(=O)O)C(=O)O)c34)cc2)c1 ?
> 100 µM

###

Items are presented alongside their recorded pIC50.
System: HT1080
Experiment description: Cell proliferation assay (Alamar Blue)
Format: cell-based
Applied conditions: Homo sapiens, HT-1080, 144 h; HT1080 tumor cell line; 6 days culture
Hey, just a heads up that pIC50 is the negative log base 10 of the concentration in molar.

>  <Compound>
Cc1ccc(F)c(NC(=O)Nc2ccc(-c3cccc4[nH]nc(NC(=O)C[C@H](N)C(=O)N[C@@H](CCC(=O)O)C(=O)O)c34)cc2)c1 [Compound 1]

>  <Measured value>
4.98

$$$$

Sample Cc1ccc(F)c(NC(=O)Nc2ccc(-c3cccc4[nH]nc(NC(=O)C[C@H](N)C(=O)N[C@@H](CCC(=O)N[C@@H](CCC(=O)N[C@@H](CCC(=O)N[C@@H](CCC(=O)O)C(=O)O)C(=O)O)C(=O)O)C(=O)O)c34)cc2)c1 [Compound 2] — what was its pIC50?
4.60

Next compound up: Cc1ccc(F)c(NC(=O)Nc2ccc(-c3cccc4[nH]nc(NC(=O)C[C@H](N)C(=O)O)c34)cc2)c1 [Compound 10]
5.11
